# Tested on: K. pneumoniae NVT1001 strains with carbapenemase plasmids
# Test method notes: Etest MIC of β-lactams, OmpK35/36 loss, ΔramR and/or carbapenemase (Table 9)
# Assay type: cell-based, Klebsiella pneumoniae
# Test settings: Klebsiella pneumoniae, KPC-2 on pACYC177; Δ35 (ΔompK35 mutant)
Kindly supply the reported MIC values for the records listed here.
One number for each entry, in µg/mL.

Some entries whose results are on file:
| Compound | MIC, µg/mL |
| --- | --- |
| CO/N=C(\C(=O)N[C@@H]1C(=O)N2C(C(=O)O)=C(COC(C)=O)CS[C@H]12)c1csc(N)n1 | 256 |
| CO/N=C(\C(=O)N[C@@H]1C(=O)N2C(C(=O)[O-])=C(C[N+]3(C)CCCC3)CS[C@H]12)c1csc(N)n1 [Cefepime] | 64 |
| CO[C@@]1(NC(=O)Cc2cccs2)C(=O)N2C(C(=O)O)=C(COC(N)=O)CS[C@@H]21 | 32 |

Pending compound:
Exercise: For C[C@@H](O)[C@H]1C(=O)N2C(C(=O)O)=C(S[C@@H]3CN[C@H](C(=O)Nc4cccc(C(=O)O)c4)C3)[C@H](C)[C@H]12 , write its MIC.
Key: 32

---

# System: K. pneumoniae NVT1001 and its GyrA/ParC and ΔramR mutants
# Test method notes: Etest MIC of quinolones, GyrA/ParC mutations and AcrAB-TolC overexpression (ΔramR) (Table 10)
# Type: cell-based
# Test settings: Klebsiella pneumoniae, S83L/D87N mutant
Property measured: MIC (µg/mL)
Numbers only, in µg/mL.

| Compound | MIC [µg/mL] |
| --- | --- |
| COc1c(N2C[C@@H]3CCCN[C@@H]3C2)c(F)cc2c(=O)c(C(=O)O)cn(C3CC3)c12 | 0.5 |
| CCn1cc(C(=O)O)c(=O)c2cc(F)c(N3CCNCC3)cc21 | 2 |
| CC1COc2c(N3CCN(C)CC3)c(F)cc3c(=O)c(C(=O)O)cn1c23 (centres unmarked) | 2 |

Exercise: Give the measured MIC for C[C@H]1COc2c(N3CCN(C)CC3)c(F)cc3c(=O)c(C(=O)O)cn1c23
Key: 0.5

---

# Tested on: K. pneumoniae NVT1001 strains with ESBL or AmpC β-lactamase plasmids
# Test method notes: Etest MIC of β-lactams, OmpK35/36 loss, ΔramR and/or extended-spectrum β-lactamase and AmpC β-lactamase (Table 8)
# Type: cell-based, Klebsiella pneumoniae
# Test settings: Klebsiella pneumoniae, CTX-M-14 on pACYC177; ΔramRΔ35 (ΔramRΔompK35 mutant)
Would you mind telling me the reported MIC of each entry?
Answers are plain numbers, in µg/mL.

For orientation, consider the following solved cases.
| Entry smiles | MIC (µg/mL) |
| --- | --- |
| C[C@@H](O)[C@H]1C(=O)N2C(C(=O)O)=C(S[C@@H]3CN[C@H](C(=O)N(C)C)C3)[C@H](C)[C@H]12 | 0.125 |
| C[C@@H](O)[C@H]1C(=O)N2C(C(=O)O)=C(SCCN=CN)C[C@H]12 | 0.25 |
| CO/N=C(\C(=O)N[C@@H]1C(=O)N2C(C(=O)O)=C(COC(C)=O)CS[C@H]12)c1csc(N)n1 | 128 |
| CC(C)(O/N=C(\C(=O)N[C@@H]1C(=O)N2C(C(=O)[O-])=C(C[n+]3ccccc3)CS[C@H]12)c1csc(N)n1)C(=O)O | 8 |

# ---- query compound ----
Exercise: Answer with the recorded MIC for the compound listed here: C[C@H]1[C@H](NC(=O)/C(=N\OC(C)(C)C(=O)O)c2csc(N)n2)C(=O)N1S(=O)(=O)O
Key: 16

---

# Tested on: K. pneumoniae NVT1001 strains with carbapenemase plasmids
# Test method notes: Etest MIC of β-lactams, OmpK35/36 loss, ΔramR and/or carbapenemase (Table 9)
# Assay type: cell-based, Klebsiella pneumoniae
# Test settings: Klebsiella pneumoniae, VIM-1 on pACYC177; Δ35 (ΔompK35 mutant)
Please respond with reported MIC for every item in the list.
Answers are plain numbers, in µg/mL.

| Compound | Unit annotation | MIC |
| --- | --- | --- |
| C[C@@H](O)[C@H]1C(=O)N2C(C(=O)O)=C(S[C@@H]3CN[C@H](CNS(N)(=O)=O)C3)[C@H](C)[C@H]12 | µg/mL | 32 |

Field: next compound
Exercise: // fetch MIC; item: CO/N=C(\C(=O)N[C@@H]1C(=O)N2C(C(=O)[O-])=C(C[N+]3(C)CCCC3)CS[C@H]12)c1csc(N)n1 [Cefepime] ; system: K. pneumoniae NVT1001 strains with carbapenemase plasmids
Key: 256

---

# System: K. pneumoniae NVT1001 strains with carbapenemase plasmids
# Test method notes: Etest MIC of β-lactams, OmpK35/36 loss, ΔramR and/or carbapenemase (Table 9)
# Format: cell-based, Klebsiella pneumoniae
# Test settings: Klebsiella pneumoniae, OXA-48 on pACYC177; WT (NVT1001); read-out: MIC
Task for the reader: assign each of the following molecules its reported MIC.
Numbers only, in mg/L.

Sample answers from the record:
| Molecule | Measured value |
| --- | --- |
| CO/N=C(\C(=O)N[C@@H]1C(=O)N2C(C(=O)O)=C(COC(N)=O)CS[C@H]12)c1ccco1 [Cefuroxime] | 8 |
| CO[C@@]1(NC(=O)Cc2cccs2)C(=O)N2C(C(=O)O)=C(COC(N)=O)CS[C@@H]21 [Cefoxitin] | 4 |
| C[C@@H](O)[C@H]1C(=O)N2C(C(=O)O)=C(S[C@@H]3CN[C@H](CNS(N)(=O)=O)C3)[C@H](C)[C@H]12 [Doripenem] | 2 |
| C[C@H]1[C@H](NC(=O)/C(=N\OC(C)(C)C(=O)O)c2csc(N)n2)C(=O)N1S(=O)(=O)O [Aztreonam] | 0.06 |

Let's switch to this molecule now.
Exercise: Please look at C[C@@H](O)[C@H]1C(=O)N2C(C(=O)O)=C(S[C@@H]3CN[C@H](C(=O)Nc4cccc(C(=O)O)c4)C3)[C@H](C)[C@H]12 [Ertapenem] and tell me its recorded MIC on K. pneumoniae NVT1001 strains with carbapenemase plasmids.
Key: 4

---

# System: K. pneumoniae NVT1001 gyrA/parC and gyrA/parC/ramR mutants and revertants
# Test method notes: Etest MIC of quinolones, gyrA/parC and gyrA/parC/ramR mutants and their revertants (Table 11)
# Assay type: cell-based
# Test settings: Klebsiella pneumoniae, ΔramR/S83I/D87N/S80I::N87D/I80S revertant
# Description: The allelic-exchange method was used to restore the wild-type gene in the K. pneumoniae NVT1001 mutants with constructed chromosome-mediated resistance mechanisms, as described by Tsai et al.^19 Briefly, a DNA fragment of the entire wild-type gene sequence along with flanking regions was amplified from K. pneumoniae NVT1001 using PCR with specific primers. […] The MICs of antibiotics were determined using the Etest (Biodisk AB, Sweden) according to the manufacturer's instructions. […]
Property measured: MIC

Examples with answers:
| Compound | Measured value |
| --- | --- |
| CCn1cc(C(=O)O)c(=O)c2ccc(C)nc21 | > 256 µg/mL |
| CCn1cc(C(=O)O)c(=O)c2cc(F)c(N3CCNCC3)cc21 | 8 µg/mL |
| CC1COc2c(N3CCN(C)CC3)c(F)cc3c(=O)c(C(=O)O)cn1c23 (centres unmarked) | > 32 µg/mL |

Report MIC for every entry below.
1. COc1c(N2C[C@@H]3CCCN[C@@H]3C2)c(F)cc2c(=O)c(C(=O)O)cn(C3CC3)c12
2. C[C@H]1COc2c(N3CCN(C)CC3)c(F)cc3c(=O)c(C(=O)O)cn1c23

Key:
1. 8 µg/mL
2. 8 µg/mL

---

# Test system: K. pneumoniae NVT1001 strains with ESBL or AmpC β-lactamase plasmids
# Test method notes: Etest MIC of β-lactams, OmpK35/36 loss, ΔramR and/or extended-spectrum β-lactamase and AmpC β-lactamase (Table 8)
# Type: cell-based, Klebsiella pneumoniae
# Test settings: Klebsiella pneumoniae, CTX-M-14 on pACYC177; ΔramR mutant
Property measured: MIC (µg/mL)
One number for each entry, in µg/mL.

Reference set, count: 3
| Entry smiles | Test system | MIC / µg/mL |
| --- | --- | --- |
| CO[C@@]1(NC(=O)Cc2cccs2)C(=O)N2C(C(=O)O)=C(COC(N)=O)CS[C@@H]21 | K. pneumoniae NVT1001 strains with ESBL or AmpC β-lactamase plasmids | 64 |
| CC(C)(O/N=C(\C(=O)N[C@@H]1C(=O)N2C(C(=O)[O-])=C(C[n+]3ccccc3)CS[C@H]12)c1csc(N)n1)C(=O)O | K. pneumoniae NVT1001 strains with ESBL or AmpC β-lactamase plasmids | 8 |
| C[C@@H](O)[C@H]1C(=O)N2C(C(=O)O)=C(S[C@@H]3CN[C@H](CNS(N)(=O)=O)C3)[C@H](C)[C@H]12 | K. pneumoniae NVT1001 strains with ESBL or AmpC β-lactamase plasmids | 0.06 |

Turning now to a further record.
Exercise: Supply measured MIC of C[C@@H](O)[C@H]1C(=O)N2C(C(=O)O)=C(SCCN=CN)C[C@H]12 in your reply.
Key: 0.25
